# target_under_test: Cytochrome P450 3A4 (Homo sapiens) (UniProt P08684)
# Sequence (P08684 whole entry, looked up): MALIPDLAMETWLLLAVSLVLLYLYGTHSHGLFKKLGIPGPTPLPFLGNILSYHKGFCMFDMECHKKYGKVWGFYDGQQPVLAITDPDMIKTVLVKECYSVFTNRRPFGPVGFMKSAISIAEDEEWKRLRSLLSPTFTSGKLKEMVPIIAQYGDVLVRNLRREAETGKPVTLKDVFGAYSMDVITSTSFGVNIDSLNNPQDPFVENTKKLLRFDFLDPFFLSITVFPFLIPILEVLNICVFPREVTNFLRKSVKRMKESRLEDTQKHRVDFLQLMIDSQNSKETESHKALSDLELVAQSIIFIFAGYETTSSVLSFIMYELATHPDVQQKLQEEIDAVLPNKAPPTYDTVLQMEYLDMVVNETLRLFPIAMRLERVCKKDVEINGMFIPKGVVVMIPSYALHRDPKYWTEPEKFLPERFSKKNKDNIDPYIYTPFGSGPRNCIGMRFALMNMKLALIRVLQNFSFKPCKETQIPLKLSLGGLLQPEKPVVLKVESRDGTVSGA
# test_summary: Cytochrome P450 Family 3 Subfamily A Member 4 (CYP3A4) small molecule antagonists: luciferase reporter qHTS assay (AID 1671201); further: nearly all actives have a fitted effect of over 50% in size
# run_parameters: P450-Glo CYP3A4 enzyme, luciferin luminescence, 1 h; series mostly up to 115 µM
Records with an inconclusive call do not appear. Active and inactive are the calls of the source. The call rests on the fitted dose curve; in most records, active means well fitted inhibition curve with a large enough effect in the repeat runs; inconclusive means weak or mixed curves; inactive means no such curve, though single readings can be large or run the other way.
Classes used: YES (active), NO (inactive)

molecule=CC1(C)[C@@H]2CC[C@]3(C2)[C@@H]1C(=O)CCC3(C)C group_label=YES
molecule=C=CCCC group_label=NO
molecule=Oc1ccc(Oc2ccccc2)cc1 group_label=NO
molecule=O=C(OCCOCCOCCOC(=O)c1ccccc1)c1ccccc1 group_label=NO
molecule="CC(C)=CCCC(C)C=O (stereo not drawn)" group_label=YES
molecule=CCCCOC(=O)CC#N group_label=NO
molecule=O=C(O)c1cc(C(=O)O)cc([N+](=O)[O-])c1 group_label=NO
molecule=CC(C)Oc1ccccc1O group_label=NO
molecule=C[C@H](CN1CCCC1)C(=O)c1ccc(C(F)(F)F)cc1 group_label=NO
molecule="CC1=C(C)C(=O)C(C(CCCCCC(=O)O)c2ccccc2)=C(C)C1=O (stereo not drawn)" group_label=NO
molecule="OCC(O)c1ccccc1 (stereo not drawn)" group_label=NO
molecule="C[C@H](N)C(=O)N[C@@H](C)C(=O)NC1[C@H]2CN(c3nc4c(cc3F)c(=O)c(C(=O)O)cn4-c3ccc(F)cc3F)C[C@@H]12 (stereo partly drawn)" group_label=YES
molecule=O=C1CCCN1CCO group_label=NO
molecule=C=C(C)C(=O)OCCCCCCCCCCOC(=O)C(=C)C group_label=NO
molecule="CC(C)(Cc1c[nH]c2ccccc12)NCC(O)COc1ccccc1C#N (stereo not drawn)" group_label=NO
molecule=CCCCCCCCCCCCN1CCOCC1 group_label=NO
molecule=O=C1c2ccccc2C(=O)C1c1ccc2ccccc2n1 group_label=YES
molecule=NCCOCCOCCN group_label=NO
molecule=C1CCN(CN2CCCCC2)CC1 group_label=NO
molecule=CCCCCCCCNC group_label=NO
molecule=O=C(O)c1cccc(C(=O)O)c1C(=O)O group_label=NO
molecule=CCOc1cc(OCC)c(C(C)=O)cc1OCC group_label=YES
molecule="FC1(F)C(F)(F)C(F)(F)C2(F)C(F)(C1(F)F)C(F)(F)C(F)(F)C1(F)C(F)(F)C(F)(F)C(F)(F)C(F)(F)C12F (stereo not drawn)" group_label=NO
molecule="CCCC1CCCC(=O)O1 (stereo not drawn)" group_label=YES
molecule=Nc1ccc(F)cc1F group_label=NO
molecule=OCCc1ccncc1 group_label=YES
molecule=COc1cc(C)c(Cc2cnc(N)nc2N)cc1OC group_label=NO
molecule=O=C(Nc1ccccc1)c1cc([N+](=O)[O-])ccc1Cl group_label=YES

---

# test_summary: qHTS assay to test for compound auto fluorescence at 590 nm (red) in HEK293 cell free culture (AID 720683)
# run_parameters: cell-free medium autofluorescence, Ex540/Em590 red; series mostly up to 91.3 µM
Activity calls are given as the source filed them. Calls follow the shape of the dose curve; as a rule, active = well fitted curve in the direction sought with a large enough effect in the repeat runs; inconclusive = weak or mixed curves; inactive = flat fitted curve, though single readings scatter.
recorded_endpoint: fluorescence, % of fluorescent control

chem_smiles=C[Si](C)(C)O[Si](C)(C)O[Si](C)(C)C reported_measurement=inactive
chem_smiles=O=C(O)CCc1nc2ccccc2[nH]1 reported_measurement=inactive
chem_smiles=c1ccc(CCNc2nc(-c3ccccc3)cs2)cc1 reported_measurement=inactive
chem_smiles=FC(F)(Cl)C(F)(Cl)Cl reported_measurement=inactive
chem_smiles=CC(=O)Nc1ccccc1O reported_measurement=inactive
chem_smiles=CCn1nc(Cc2ccccc2)cc1C1CCN(C[C@H]2C[C@H](N(C)[C@@H](C(=O)O)C(C)C)C[C@@H]2c2cccc(F)c2)CC1 reported_measurement=inactive

Source of measurements: PubChem BioAssay (Tox21)
